The reported numbers originate from ChEMBL document CHEMBL4823315.

- system.under.test: Cytochrome P450 1A2 (Homo sapiens, UniProt P05177)
- Sequence (P05177 whole entry): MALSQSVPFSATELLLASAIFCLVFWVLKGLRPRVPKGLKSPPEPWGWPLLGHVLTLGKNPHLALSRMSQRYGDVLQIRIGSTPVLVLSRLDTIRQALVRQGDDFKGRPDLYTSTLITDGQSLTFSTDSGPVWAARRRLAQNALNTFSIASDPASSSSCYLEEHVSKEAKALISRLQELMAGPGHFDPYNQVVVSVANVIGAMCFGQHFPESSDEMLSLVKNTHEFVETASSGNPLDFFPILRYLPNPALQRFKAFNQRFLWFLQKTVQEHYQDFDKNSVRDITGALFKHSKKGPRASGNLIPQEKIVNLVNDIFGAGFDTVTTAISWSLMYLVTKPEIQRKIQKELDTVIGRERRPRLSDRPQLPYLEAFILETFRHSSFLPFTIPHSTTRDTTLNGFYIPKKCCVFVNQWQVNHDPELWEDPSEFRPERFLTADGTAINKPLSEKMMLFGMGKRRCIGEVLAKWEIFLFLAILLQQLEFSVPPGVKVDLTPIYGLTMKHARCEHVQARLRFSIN
value.type: IC50

Problem: Quick one: IC50 of NC(=O)c1c(N)ncnc1N1CCC(c2nc(-c3ccc(F)c(C(F)(F)F)c3)cn2CCN2CCC2)CC1 ?
Solution: > 20 µM

* * *

- assay.name: Inhibition of Akt/p70S6K in human MDA-MB-436 cells assessed as inhibition of S6 phosphorylation
- Format: cell-based
value.type: log10(IC50) (log10 of the value in nM)
Values are log10 of IC50 in nM.

Problem: Name the recorded log10(IC50) for NCC(c1ccc(F)cc1)N1CCN(c2ncnc(N)c2-c2ccc(F)cc2)CC1 (stereo not given) .
Solution: 3.28

Problem: Queued: CCc1c(N)ncnc1N1CCC(c2nc(-c3ccc(F)c(C(F)(F)F)c3)cn2CCN2CCC2)CC1
Solution: 4.69

Problem: Another compound: Cn1cc(-c2ccc(F)c(C(F)(F)F)c2)nc1C1CCN(c2ncnc(N)c2C(N)=O)CC1
Solution: 3.36

Problem: Repeat with CC(C)c1c(N)ncnc1N1CCC(c2nc(-c3ccc(F)c(C(F)(F)F)c3)cn2CCN2CCC2)CC1
Solution: 4.89

Problem: Proceed to COc1c(N)ncnc1N1CCC(c2nc(-c3ccc(F)c(C(F)(F)F)c3)cn2C)CC1
Solution: 3.08
